- System: HSC1
- measurement-description: relative IC50 (inflection point of fitted dose-response curve, CellTox-Green cytotoxicity, 72 h; top asymptote may be below 50%); higher = less potent
relative IC50 values by entry
Field format: number, assumed µM, no unit text.

- compound: "Nc1ncnc2c1nc(N)n2[C@@H]1O[C@H](CO)[C@@H](O)[C@H]1O"
  reported: 6.65
- compound: "CC[C@@]1(O)C(=O)OCc2c1cc1n(c2=O)Cc2cc3ccccc3nc2-1"
  reported: 0.0757
- compound: "O=C(/C=C/c1cccc(S(=O)(=O)Nc2ccccc2)c1)NO"
  reported: 1.77

Next:
*Q* Consider the compound shown here: CCN(CC)CCCC(C)Nc1c2ccc(Cl)cc2nc2ccc(OC)cc12 (centres undefined) What is its recorded relative IC50?
*A* 0.956

----------
relative IC50 values by entry
- System: HSC1
- measurement-description: relative IC50 (inflection point of fitted dose-response curve, CellTiter-Glo viability, 72 h; top asymptote may be below 50% inhibition); higher = less potent
Field format: number, assumed nM, no unit text.

Known relative IC50 results, listed for orientation:
- compound-smiles: "CO[C@H]1C[C@@H]2CC[C@@H](C)[C@@](O)(O2)C(=O)C(=O)N2CCCC[C@H]2C(=O)O[C@H]([C@H](C)C[C@@H]2CC[C@@H](OP(C)(C)=O)[C@H](OC)C2)CC(=O)[C@H](C)/C=C(\\C)[C@@H](O)[C@@H](OC)C(=O)[C@H](C)C[C@H](C)/C=C/C=C/C=C/1C"
  relative IC50 [nM]: 0.221
- compound-smiles: "O=C(c1cc(Cc2n[nH]c(=O)c3ccccc23)ccc1F)N1CCN(C(=O)C2CC2)CC1"
  relative IC50 [nM]: 1670
- compound-smiles: "O=c1[nH]c(=O)n([C@H]2C[C@H](O)[C@@H](CO)O2)cc1F"
  relative IC50 [nM]: 752
- compound-smiles: "Cn1cc(CNCC2CCN(c3ncc(C(=O)NO)cn3)CC2)c2ccccc21"
  relative IC50 [nM]: 34.5
- compound-smiles: "C[C@@]1(C(=O)Nc2ccc(F)nc2)CCCN1c1nc(Nc2cc(C3CC3)n[nH]2)c2cccn2n1"
  relative IC50 [nM]: 441

*Q* Consider the compound shown here: CCN(CC)CCOc1ccc(/C(=C(/Cl)c2ccccc2)c2ccccc2)cc1 What is its recorded relative IC50?
*A* 1140

----------
% inhibition values by entry
- Tested on: HSC1 (primary human Schwann cells)
- measurement-description: % inhibition of CellTiter-Glo viability at highest tested concentration (72 h), relative to DMSO and benzethonium chloride controls; higher = more inhibition
Field format: number, assumed %, no unit text.

Known % inhibition results, listed for orientation:
- compound: "COc1cc2c(cc1-c1c(C)noc1C)ncc1[nH]c(=O)n([C@H](C)c3ccccn3)c12 [I-BET151] (max concentration tested 10000 nM)"
  tgt: "HSC1 (primary human Schwann cells)"
  reported: 63.4
- compound: "CCCCC/C=C/C=C1/C(=O)C=C[C@@H]1C/C=C\\CCCC(=O)O [15D-PGJ2] (max concentration tested 800 nM)"
  tgt: "HSC1 (primary human Schwann cells)"
  reported: 2.13
- compound: "O=S(=O)(c1cccc2cnccc12)N1CCCNCC1 [Fasudil] (max concentration tested 50000 nM)"
  tgt: "HSC1 (primary human Schwann cells)"
  reported: 27.6
- compound: "CO[C@H]1/C=C\\C=C(/C)C(=O)NC2=CC(=O)C(NCCN(C)C)=C(C[C@@H](C)C[C@H](OC)[C@H](O)[C@@H](C)/C=C(\\C)[C@@H]1OC(N)=O)C2=O [Alvespimycin] (max concentration tested 1000 nM)"
  tgt: "HSC1 (primary human Schwann cells)"
  reported: 98.1
- compound: "CCCCC(=O)OCC(=O)[C@]1(O)Cc2c(O)c3c(c(O)c2[C@@H](O[C@H]2C[C@H](NC(=O)C(F)(F)F)[C@H](O)[C@H](C)O2)C1)C(=O)c1c(OC)cccc1C3=O [Valrubicin] (max concentration tested 5000 nM)"
  tgt: "HSC1 (primary human Schwann cells)"
  reported: 95.1

*Q* Consider the compound shown here: OC[C@H]1O[C@@H](n2cnc3c2N=CNC[C@H]3O)C[C@@H]1O [Pentostatin] (max concentration tested 10000 nM) What is its recorded % inhibition?
*A* 4.07
